// data source = ChEMBL document CHEMBL1201862

test system: SK-MEL-2; test: NCI tumour cell line growth inhibition, 48 h
Active and inactive are the calls of the source. No stated cut-off is given here; in the data, active = GI50 up to about 1.1 µM and inactive = higher.
Please reply with one of these outcomes: yes (1) for active, no (0) for inactive

A selection of reference data follows.
O=C(/C=C/c1ccc(O)cc1)c1ccc2c(c1)OCO2
no (0)
COc1cc(-c2cc(=O)c3c(OC)c(OC)c(OC)c(OC)c3o2)cc(OC)c1OC
no (0)
Cc1nc(-c2cc3cc(Cl)ccc3oc2=O)cc2c1c(=O)oc1ccc(Cl)cc12
no (0)

State the result this test recorded for O=C(O)CCC(NC(=O)c1ccc(Nc2nc3cc(C(F)(F)F)ccc3nc2C(=O)O)cc1)C(=O)O (stereo not given) .
no (0)

Given Cc1cccc2c(N)c3cccc(C(=O)NCC[N+]4(Cc5ccc([N+](=O)[O-])cc5)CCOCC4)c3nc12 , state the outcome it received in this test.
no (0)

Kindly provide the recorded test outcome for the following compound: CC(=O)OCC1OC(n2cc(I)c(=O)[nH]c2=O)C(OC(C)=O)C(OC(C)=O)C1OC(C)=O (stereo not given)
no (0)

Assay outcome for CC12CC(=O)Nc3ccccc3N1C(c1ccccc1)=NO2 (stereo not given) : what was it?
no (0)

Give the logged outcome of this assay for the following compound: Fc1c(F)c(F)c(CSc2nc3ccccc3[nH]2)c(F)c1F
no (0)

Name the outcome recorded for CC(=O)O/C=C\OC1CCCC1(c1ccccc1)c1ccccc1 (stereo not given) in the assay.
no (0)

Which outcome did this test record for the compound O=C1Cc2c(-c3ccc(Cl)cc3)cc(-c3ccccc3)nc2-c2ccccc2N1 ?
no (0)

Recorded test call requested for O=[As]O
no (0)

----------
The reader will find reported GI50 values listed item by item below.
tested on: DLD-1; experiment: NCI tumour cell line growth inhibition, 48 h
The source made the active and inactive calls. Cut-off read from the data, not from the text of the source: active = GI50 up to about 1.1 µM and inactive = higher.

Field: example entries. Status: answers known.
COc1ccc(C(=O)C2=NON3OC23C(=O)c2ccc(OC)cc2)cc1 (stereo not drawn)
7.28 µM (inactive)
COc1ccc(N2C(=O)C3C=CC(n4[nH]c(=O)n(Cc5ccccc5)c4=O)CC3C2=O)cc1 (stereo not drawn)
> 100 µM (inactive)
C#CCOCn1cnc2c(S)ncnc21
> 100 µM (inactive)
CC1=NC(C(=O)O)Cc2c1[nH]c1ccccc21 (stereo not drawn)
> 100 µM (inactive)
NC(=O)N/N=C(/Cc1nc2ccc(C(=O)c3ccccc3)cc2nc1O)C(=O)Nc1ccc(C(F)(F)F)cc1[N+](=O)[O-]
> 100 µM (inactive)
C=CCCCCCCCCCCCC1CCC(CC)N1 (stereo not drawn)
3.72 µM (inactive)
CCSC1=CC(Cc2ccc(OC)cc2)N(C(=O)OC)C1 (stereo not drawn)
81.8 µM (inactive)
CN(C)CCC(=O)/C=C\c1ccccc1
15.8 µM (inactive)
CC(C)S(=O)(=O)ON1C(=O)c2ccc([N+](=O)[O-])cc2C1=O
> 100 µM (inactive)
CCCc1nc(NC#N)nc(C(=O)Nc2ccccc2)c1CC
> 100 µM (inactive)

Fill: GI50 (DLD-1) for this compound O=C1CC2CCCC23CC2(CCN13)OCCO2 (stereo not drawn)
> 100 µM (inactive)

Please respond with reported GI50 (system DLD-1) for Oc1ccccc1-c1cnnc(-c2ccccc2O)c1 .
30.6 µM (inactive)

Report GI50 under test system DLD-1 for CC1(C)OC2C(CCP(=O)(O)O)OC(c3nc(C(N)=O)cs3)C2O1 (stereo not drawn) .
> 100 µM (inactive)

Give DLD-1 GI50 for the following compound: Cc1ccc(C)c(N2C(=O)C(=O)C(c3nc4ccccc4s3)/C(=N/NC(=O)NN)C2=O)c1 (stereo not drawn)
> 100 µM (inactive)

Quote GI50 with test system DLD-1 for Cc1nc2sccn2c1C(=O)N/N=C1\SCC(=O)N1C
> 100 µM (inactive)

Specify GI50 for O=C1NC2(NC(=O)C1=O)Nc1ccccc1S2 , system DLD-1.
23.7 µM (inactive)

Look up DLD-1 data: GI50 of COc1cc2c(cc1OC)C(Cl)C(c1cc(OC)c(OC)c(OC)c1)=C2Cl (stereo not drawn) , then report it.
19.4 µM (inactive)
